# test_target: KLHDC2 (Homo sapiens (Human))
# assay_info: Time-resolved fluorescence energy transfer (TR-FRET) assay with Bodipy-labeled ligand probe
# Format: binding
# cond: Table 2
What IC50 was measured for each of the following?
Form entry: value (µM) — number only.

# lookup: KLHDC2 (Homo sapiens (Human)) IC50, key = O=C(O)CNC(=O)Cc1csc(-c2ccc3ccn(CCCN4CCNCC4)c3c2)n1 [Compound 24]
1.2

# lookup: KLHDC2 (Homo sapiens (Human)) IC50, key = O=C(O)CNC(=O)Cc1csc(-c2ccc3cccc(OCCN4CCNCC4)c3c2)n1 [Compound 19]
1.6

# lookup: KLHDC2 (Homo sapiens (Human)) IC50, key = COCCOc1cccc2ccc(-c3nc(CC(=O)NCC(=O)O)cs3)cc12 [Compound 15A]
1.1

====

What IC50 was measured for each of the following?
# test_target: KLHDC2 (Homo sapiens (Human), UniProt Q9Y2U9)
# Sequence (Q9Y2U9 whole entry): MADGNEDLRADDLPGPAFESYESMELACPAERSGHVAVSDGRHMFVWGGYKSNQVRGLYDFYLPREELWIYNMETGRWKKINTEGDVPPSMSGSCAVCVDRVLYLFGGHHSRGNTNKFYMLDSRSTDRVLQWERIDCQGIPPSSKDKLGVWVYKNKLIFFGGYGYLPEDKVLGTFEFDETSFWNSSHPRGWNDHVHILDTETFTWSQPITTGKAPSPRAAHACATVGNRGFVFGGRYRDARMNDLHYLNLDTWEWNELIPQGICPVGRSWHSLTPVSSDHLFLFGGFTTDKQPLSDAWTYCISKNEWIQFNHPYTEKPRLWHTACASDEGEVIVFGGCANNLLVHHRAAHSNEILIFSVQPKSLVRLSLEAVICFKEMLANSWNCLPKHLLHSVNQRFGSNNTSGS
# assay_info: Time-resolved fluorescence energy transfer (TR-FRET) assay with Bodipy-labeled ligand probe
# Assay type: binding
# cond: Table 1
Form entry: value (µM) — number only.

Quickly give me recorded IC50 for O=C(O)CNC(=O)Cc1csc(-c2ccc3c(c2)NCCO3)n1 [Compound 27]
3

Quickly give me recorded IC50 for COc1ccc2cc(-c3nc(CC(=O)NCC(=O)O)cs3)ccc2c1 [Compound 10]
9.6

Quickly give me recorded IC50 for COCOc1ccc(-c2nc(CC(=O)NCC(=O)O)cs2)c(Cl)c1 [i]
24.1

Quickly give me recorded IC50 for O=C(O)CNC(=O)Cc1csc(-c2cccc3ccncc23)n1 [Compound 9]
20.3

Quickly give me recorded IC50 for O=C(O)CNC(=O)Cc1csc(-c2ccc3ccccc3c2F)n1 [Compound 13]
1.8

Quickly give me recorded IC50 for O=C(O)CNC(=O)Cc1csc(-c2ccc3ccccc3c2)n1 [Compound 8]
3.9

Quickly give me recorded IC50 for O=C(O)CNC(=O)Cc1csc(-c2ccc3cc[nH]c3c2)n1 [Compound 23]
1.1

Quickly give me recorded IC50 for O=C(O)CNC(=O)Cc1csc(-c2cccc3cccnc23)n1 [Compound 11]
7.1

Quickly give me recorded IC50 for COc1ccc2ccc(-c3nc(CC(=O)NCC(=O)O)cs3)cc2c1 [Compound 14]
1.7

Quickly give me recorded IC50 for O=C(O)CNC(=O)Cc1csc(-c2cccc3ccccc23)n1 [Compound 12]
8.8

====

What ΔTm (° C.) 50 μM ligand was measured for each of the following?
# test_target: KLHDC2 (Homo sapiens (Human), UniProt Q9Y2U9)
# assay_info: Sypro orange thermal stability (thermal shift) assay
# Assay type: binding
# cond: Table 1, 0.5 μM KLHDC2
Report the figure along with its unit, number first.

Quickly give me recorded ΔTm (° C.) 50 μM ligand for O=C(O)CNC(=O)Cc1csc(-c2cccc3ccncc23)n1
1.8 ± 0.0 °C

Quickly give me recorded ΔTm (° C.) 50 μM ligand for COc1ccc2ccc(-c3nc(CC(=O)NCC(=O)O)cs3)cc2c1
4.3 ± 0.2 °C

Quickly give me recorded ΔTm (° C.) 50 μM ligand for O=C(O)CNC(=O)Cc1csc(-c2ccc3ccccc3c2)n1
6.0 ± 0.0 °C
